src = PubChem BioAssay AID1159580

# TEST: chemical genetic growth profiling, strain panel (AID 1159580);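 note: tested at 20 µM; growth read once vehicle control cultures reached saturation at 30 °C; 1 = growth at the plate median or of vehicle wells; lower values mean less growth of the strain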
# RUN CONDITIONS: S. cerevisiae deletion strains, growth OD, locus YFR028C, strain CDC14, active compounds read low
Out of some 5,500 compounds screened, about 2,000 (36%) were called active. Inconclusive results (about 18%) are left out. The list shows a part of the results.
METRIC NAME: normalized growth
Numbers only.

A selection of reference data follows.
compound=O=C(CCN1CCCCC1)c1ccc(-c2ccccc2)cc1 experimental_value=0.976
compound="CCC(C)c1ccccc1NC(=O)c1cc2cccc([N+](=O)[O-])c2[nH]1 (stereo unspecified)" experimental_value=0.967
compound=C/C(=N/NC(N)=S)c1ccccn1 experimental_value=0.962
compound=CC(C)(C)C1=NN(c2nc3ccc(Cl)cc3s2)C(=O)C1 experimental_value=0.101
compound=O=C(C=C(O)c1ccc(Br)cc1)C(=O)Nc1ccccc1 experimental_value=0.448
compound=O=C(NCc1ccco1)c1ccc(Oc2cc(Cl)cc(Cl)c2)o1 experimental_value=0.957
compound=CC1=CC(=O)C(CCOCCC2=CC(=O)C(C)=CC2=O)=CC1=O experimental_value=0.985
compound=Cc1c(Cl)cccc1NC(=S)N1CCCN(c2nc3ccc(Cl)cc3s2)CC1 experimental_value=0.98
compound=O=[N+]([O-])c1cc(C(F)(F)F)ccc1-n1ccc(-c2cccs2)n1 experimental_value=0.952
compound="Cc1oc2c(F)c(F)c(F)c(F)c2c1C(=O)ONC(N)c1ccc(OS(=O)(=O)N(C)C)cc1 (stereo unspecified)" experimental_value=0.963

Proceed to the following item.
Just so you know, measured normalized growth for "Cc1c(C(=O)N2CCCCC2)cc(-c2ccccc2)n1-c1ccccc1" came out at 0.968
